# System: Aspergillus fumigatus IAM 2034
# Test Protocol: MIC, two-fold agar dilution, A. fumigatus IAM 2034
# Type: cell-based
# Conditions Used: IAM2034; Aspergillus fumigatus IAM 2034; YMA pH 7.0, 28° C., 40 hours; read-out: MIC
Could you please report measured MIC for the items listed next?
A number alone suffices; assume µg/mL.

Query (molecule): COc1cc(O)c2c(c1)C(=O)c1c(cc3c(c1O)-c1c(cc(C)c(C(=O)N[C@H](C)C(=O)O)c1O)[C@H](O[C@@H]1O[C@H](C)[C@H](NC=N)[C@H](O[C@@H]4OC[C@@H](O)[C@H](O)[C@H]4O)[C@H]1O)[C@H]3O)C2=O ; field requested: MIC
1.6

Query (molecule): COc1cc(O)c2c(c1)C(=O)c1c(cc3c(c1O)-c1c(cc(C)c(C(=O)N[C@H](CO)C(=O)O)c1O)[C@H](O[C@@H]1O[C@H](C)[C@H](N(C)C#N)[C@H](O[C@@H]4OC[C@@H](O)[C@H](O)[C@H]4O)[C@H]1O)[C@H]3O)C2=O ; field requested: MIC
25

Query (molecule): CN[C@@H]1[C@H](O[C@@H]2OC[C@@H](O)[C@H](O)[C@H]2O)[C@@H](O)[C@H](O[C@H]2c3cc(C)c(C(=O)N[C@H](C)C(=O)O)c(O)c3-c3c(cc4c(c3O)C(=O)c3cc(OC)cc(O)c3C4=O)[C@@H]2O)O[C@@H]1C [Pradimicin A, reference compound] ; field requested: MIC
1.6

Query (molecule): COc1cc(O)c2c(c1)C(=O)c1c(cc3c(c1O)-c1c(cc(C)c(C(=O)N[C@H](C)C(=O)O)c1O)[C@H](O[C@@H]1O[C@H](C)[C@H](N(C)C#N)[C@H](O[C@@H]4OC[C@@H](O)[C@H](O)[C@H]4O)[C@H]1O)[C@H]3O)C2=O ; field requested: MIC
12.5

* * *

# Test system: Cryptococcus neoformans IAM 4514
# Test Protocol: MIC, two-fold agar dilution, C. neoformans IAM 4514
# Assay type: cell-based
# Conditions Used: IAM4514; Cryptococcus neoformans IAM 4514; YMA pH 7.0, 28° C., 40 hours; read-out: MIC
Could you please report measured MIC for the items listed next?
Number plus unit, in that order.

Query (compound): COc1cc(O)c2c(c1)C(=O)c1c(cc3c(c1O)-c1c(cc(C)c(C(=O)N[C@H](C)C(=O)O)c1O)[C@H](O[C@@H]1O[C@H](C)[C@H](N(C)N=O)[C@H](O[C@@H]4OC[C@@H](O)[C@H](O)[C@H]4O)[C@H]1O)[C@H]3O)C2=O ; field requested: MIC
1.6 µg/mL

Query (compound): COc1cc(O)c2c(c1)C(=O)c1c(cc3c(c1O)-c1c(cc(C)c(C(=O)N[C@H](C)C(=O)O)c1O)[C@H](O[C@@H]1O[C@H](C)[C@H](NC#N)[C@H](O[C@@H]4OC[C@@H](O)[C@H](O)[C@H]4O)[C@H]1O)[C@H]3O)C2=O ; field requested: MIC
1.6 µg/mL

* * *

# Tested on: Trichophyton mentagrophytes #4329
# Test Protocol: MIC, two-fold agar dilution, T. mentagrophytes #4329
# Type: cell-based
# Conditions Used: Trichophyton mentagrophytes #4329; YMA pH 7.0, 28° C., 60 hours; read-out: MIC
Could you please report measured MIC for the items listed next?
A number alone suffices; assume µg/mL.

Query (compound): CN[C@@H]1[C@H](O[C@@H]2OC[C@@H](O)[C@H](O)[C@H]2O)[C@@H](O)[C@H](O[C@H]2c3cc(C)c(C(=O)N[C@H](CO)C(=O)O)c(O)c3-c3c(cc4c(c3O)C(=O)c3cc(OC)cc(O)c3C4=O)[C@@H]2O)O[C@@H]1C [Pradimicin FA-1, reference compound] ; field requested: MIC
1.6

Query (compound): CN[C@@H]1[C@H](O[C@@H]2OC[C@@H](O)[C@H](O)[C@H]2O)[C@@H](O)[C@H](O[C@H]2c3cc(C)c(C(=O)N[C@H](C)C(=O)O)c(O)c3-c3c(cc4c(c3O)C(=O)c3cc(OC)cc(O)c3C4=O)[C@@H]2O)O[C@@H]1C [Pradimicin A, reference compound] ; field requested: MIC
3.1
